System: CEM cells HIV-1 protection, formazan growth assay
Assay: NCI AIDS Antiviral Assay
Conditions: measured here: growth of uninfected CEM cells
measured-property: IC50 (µM)
All answers are understood in µM, so give the number only.

Consider the worked cases shown below.
molecule	IC50 (µM)
COc1cc2c(c3c1c(=O)c1ccccc1n3C)C=CC1(CCCCC1)O2	7.76
CCCCCCCCCCCCSCC12c3ccccc3C(c3ccccc31)C(C(=O)O)C2C(=O)O (stereo unspecified)	22.4

Documented IC50 of Cc1c(C#N)c(=N)oc2ccccc12 : 115

Documented IC50 of O=C1/C(=C/c2ccc(O)c(O)c2)CCc2ccccc21 : 2.4

Where do these numbers come from? They come from PubChem BioAssay AID179.
